Molecular target: USP32 FL (USP32FL, USP32WT) (Homo sapiens, UniProt Q8NFA0)
Sequence (Q8NFA0 whole entry): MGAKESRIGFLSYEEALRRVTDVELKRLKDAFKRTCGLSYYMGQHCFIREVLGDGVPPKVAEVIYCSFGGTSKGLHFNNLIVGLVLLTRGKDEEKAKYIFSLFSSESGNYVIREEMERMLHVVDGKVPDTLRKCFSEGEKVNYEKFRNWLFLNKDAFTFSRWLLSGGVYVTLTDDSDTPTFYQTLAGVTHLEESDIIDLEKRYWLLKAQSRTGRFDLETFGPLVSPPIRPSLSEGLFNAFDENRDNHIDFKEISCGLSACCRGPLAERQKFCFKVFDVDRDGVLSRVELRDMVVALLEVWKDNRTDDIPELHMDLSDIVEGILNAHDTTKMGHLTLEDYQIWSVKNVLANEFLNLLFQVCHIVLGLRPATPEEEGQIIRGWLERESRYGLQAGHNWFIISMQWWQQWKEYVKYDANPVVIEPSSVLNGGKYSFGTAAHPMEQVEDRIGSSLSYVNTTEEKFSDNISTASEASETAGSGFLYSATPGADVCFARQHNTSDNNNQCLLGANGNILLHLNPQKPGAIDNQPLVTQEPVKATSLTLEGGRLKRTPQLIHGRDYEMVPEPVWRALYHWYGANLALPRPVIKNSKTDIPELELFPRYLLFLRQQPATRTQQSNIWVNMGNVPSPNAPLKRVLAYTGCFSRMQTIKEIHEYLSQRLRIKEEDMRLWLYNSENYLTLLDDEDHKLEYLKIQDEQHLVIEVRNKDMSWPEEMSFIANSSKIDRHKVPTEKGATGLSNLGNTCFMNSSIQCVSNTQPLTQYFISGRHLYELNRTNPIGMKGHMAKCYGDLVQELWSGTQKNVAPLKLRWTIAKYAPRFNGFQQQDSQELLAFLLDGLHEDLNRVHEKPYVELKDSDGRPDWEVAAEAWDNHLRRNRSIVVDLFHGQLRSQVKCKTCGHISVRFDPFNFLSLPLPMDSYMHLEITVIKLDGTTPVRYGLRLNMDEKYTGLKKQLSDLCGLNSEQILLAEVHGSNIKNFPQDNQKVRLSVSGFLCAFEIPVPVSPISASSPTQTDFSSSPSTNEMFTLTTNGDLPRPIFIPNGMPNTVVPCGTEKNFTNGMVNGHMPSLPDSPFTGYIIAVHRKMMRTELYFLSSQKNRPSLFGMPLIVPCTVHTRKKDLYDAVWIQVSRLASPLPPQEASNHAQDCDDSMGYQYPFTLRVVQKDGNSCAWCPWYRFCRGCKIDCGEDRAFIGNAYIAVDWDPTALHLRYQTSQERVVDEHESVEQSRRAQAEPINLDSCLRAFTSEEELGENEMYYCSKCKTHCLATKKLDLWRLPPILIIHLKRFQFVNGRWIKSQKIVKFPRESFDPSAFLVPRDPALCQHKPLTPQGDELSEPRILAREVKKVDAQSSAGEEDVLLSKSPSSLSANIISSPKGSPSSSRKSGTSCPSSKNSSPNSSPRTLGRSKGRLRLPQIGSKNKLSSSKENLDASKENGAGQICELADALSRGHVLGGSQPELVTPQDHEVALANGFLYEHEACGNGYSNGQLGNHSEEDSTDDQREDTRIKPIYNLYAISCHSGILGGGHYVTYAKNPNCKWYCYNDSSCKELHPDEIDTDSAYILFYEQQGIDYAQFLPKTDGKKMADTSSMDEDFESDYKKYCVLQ
Test: UbRhoMP fluorescence intensity assay, […] min preincubation
Type: biochemical
Property Name: IC50 (µM)
Write the value in µM as a bare number.

For orientation, consider the following solved cases.
Cc1noc(C)c1S(=O)(=O)N1CCC(C(=O)N2CCC3(CCN(C#N)C3)C2)CC1 (stereo not shown); 0.518
Cc1noc(C)c1S(=O)(=O)N1CCC(C(=O)N2CC3CC2CN3C#N)CC1 (stereo not shown); 0.094
N#CN1CC[C@@H](NC(=O)C2CCN(S(=O)(=O)c3ccc(OCCN=[N+]=[N-])cc3)CC2)C1; 0.67

Next compound, please.
Entry N#CN1CC[C@@H](NC(=O)C2CCN(S(=O)(=O)c3ccc(OCCn4cc(CNC(=O)CCCC[C@@H]5SC[C@@H]6NC(=O)N[C@@H]65)nn4)cc3)CC2)C1 : reported IC50 = ? 0.266
